Give OD value for every item shown.
# STUDY SYSTEM: T1, human Nectin-4 extracellular antigen hNectin-4-His (human, UniProt Q96NY8 32-349)
# T1 construct: C-terminal 8xHis tag included
# T1 sequence: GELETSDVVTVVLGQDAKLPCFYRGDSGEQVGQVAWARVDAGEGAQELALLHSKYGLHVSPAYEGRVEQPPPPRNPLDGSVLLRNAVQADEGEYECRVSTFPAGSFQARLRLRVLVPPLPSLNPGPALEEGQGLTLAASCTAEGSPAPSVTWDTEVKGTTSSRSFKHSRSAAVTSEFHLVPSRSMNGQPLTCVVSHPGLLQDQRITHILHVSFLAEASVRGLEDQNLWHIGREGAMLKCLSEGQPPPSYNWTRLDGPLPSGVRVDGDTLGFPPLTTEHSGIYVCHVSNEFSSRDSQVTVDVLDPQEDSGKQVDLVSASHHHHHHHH
# EXPERIMENT SUMMARY: ELISA, phage scFv supernatant 1:50
Answers are plain numbers, in OD.

In: Return value of OD value for input 1F3-2H12 scFv (scFv, V domains shown, phage clone supernatant) VH: EVQLVESGGGLVQPGGSLRLSCAASGDSFDSSGMSWVRQAPGKGLEWVSGIKWITGESYYADSVKGRFTISRDNSKNTLYLQMNSLRAEDTAVYYCARAELLAFDVYTASDYWGQGTLVTVSS VL: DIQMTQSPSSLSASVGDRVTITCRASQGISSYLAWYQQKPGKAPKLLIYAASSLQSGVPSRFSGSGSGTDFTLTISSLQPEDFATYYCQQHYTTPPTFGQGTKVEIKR , no commentary.
Out: 1.59

Further cases:
In: Return value of OD value for input 1G8-1G12 scFv (scFv, V domains shown, phage clone supernatant) VH: EVQLVESGGGLVQPGGSLRLSCAASGYNFTSSAMSWVRQAPGKGLEWVSRIYSISGNTDYADSVKGRFTISRDNSKNTLYLQMNSLRAEDTAVYYCARQTEDRSYGYDLDYWGQGTLVTVSS VL: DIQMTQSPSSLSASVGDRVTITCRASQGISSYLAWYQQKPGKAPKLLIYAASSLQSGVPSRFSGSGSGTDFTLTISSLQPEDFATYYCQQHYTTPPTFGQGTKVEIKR , no commentary.
Out: 1.55
